- System: A2780-Cis
- experiment notes: Proliferation assay A2780-Cis
- Format: cell-based
- assay setup: Homo sapiens, A2780cis, 96 h, ovarial carcinoma, 4 days, crystal violet
recorded metric: pIC50
Just the number, please; pIC50 means minus log10 of the concentration in mol/L.

# input Which pIC50 reading was recorded for the compound C[C@@H](O)[C@@H](C)Oc1nc(Nc2ccc(S(C)(=N)=O)cc2)ncc1C(F)(F)F (single isomer, unassigned) [Example 2-SI-2] ?
# output 8.00

----------
Can you tell me pIC50 for the items I'm about to list?
- Test system: HeLa-MaTu
- experiment notes: Proliferation assay HeLa-MaTu
- Assay type: cell-based, human
- assay setup: cervix carcinoma, 4 days, crystal violet
To interpret pIC50, take it as minus log10 of a concentration measured in moles per litre.

# input Would you mind telling me what pIC50 value was observed for CCS(=N)(=O)c1ccc(Nc2ncc(C(F)(F)F)c(N[C@H](C)C(C)(C)O)n2)cc1 (mixture of isomers) [Example 7-SI-1] ?
# output 7.57

# input // pIC50 lookup, key: C[C@@H](Nc1nc(Nc2ccc(S(=N)(=O)C3CC3)cc2)ncc1C(F)(F)F)C(C)(C)O (mixture of isomers) [Example 5-SI-2]
# output 8.00

# input May I ask what pIC50 has been recorded for CCS(=N)(=O)c1ccc(Nc2ncc(C(F)(F)F)c(N[C@H](C)C(C)(C)O)n2)cc1 (mixture of isomers) [Example 7-SI-2] ?
# output 8.00

# input Which pIC50 value belongs to C[C@@H](Nc1nc(Nc2ccc(S(=N)(=O)C3CC3)cc2)ncc1C(F)(F)F)C(C)(C)O (mixture of isomers) [Example 5-SI-1] ?
# output 7.66

# input Fill blank: measured pIC50 of the compound C[C@@H](Nc1nc(Nc2ccc(S(C)(=N)=O)cc2)ncc1C(F)(F)F)C(C)(C)O (mixture of isomers) [Example 9-SI-2] is ____.
# output 7.68

# input Consider the compound shown here: C[C@@H](O)[C@@H](C)Nc1nc(Nc2ccc(S(C)(=N)=O)cc2)ncc1C(F)(F)F (mixture of isomers) [Example 8-SI-2] What is its recorded pIC50?
# output 8.00

# input Fill in: pIC50 of C[C@@H](O)[C@@H](C)Oc1nc(Nc2ccc(S(=N)(=O)C3CC3)cc2)ncc1C(F)(F)F (mixture of isomers) [Example 1-SI-2] is ___
# output 7.96
